MEASURED ON: T1, human GITR (amino acids M1-V241, NCBI Accession #NP_004186.1) expressed on cells (human, UniProt Q9Y5U5 26-241)
T1 sequence: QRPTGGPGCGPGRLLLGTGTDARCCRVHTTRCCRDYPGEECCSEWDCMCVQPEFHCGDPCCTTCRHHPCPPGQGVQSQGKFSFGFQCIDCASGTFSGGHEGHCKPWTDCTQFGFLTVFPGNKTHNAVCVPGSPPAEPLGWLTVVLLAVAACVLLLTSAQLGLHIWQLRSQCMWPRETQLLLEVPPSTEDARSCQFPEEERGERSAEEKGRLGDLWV
PROTOCOL TEXT: cell-based or functional assay
fold activation, T-cell proliferation, plate-bound Ab 10.6 nM, donor 2 values by entry
Write the number in fold without appending the unit.

The binder listed as H4H14475P (antibody, human IgG4, V domains shown, human IgG4 (H4H)) VH: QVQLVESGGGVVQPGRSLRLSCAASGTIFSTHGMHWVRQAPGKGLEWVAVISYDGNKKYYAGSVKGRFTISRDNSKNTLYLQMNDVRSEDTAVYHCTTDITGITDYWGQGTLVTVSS VL: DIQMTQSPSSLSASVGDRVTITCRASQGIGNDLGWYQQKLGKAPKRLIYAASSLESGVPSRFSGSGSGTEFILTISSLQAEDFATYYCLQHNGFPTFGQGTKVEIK shows fold activation, T-cell proliferation, plate-bound Ab 10.6 nM, donor 2 equal to 2

Field fold activation, T-cell proliferation, plate-bound Ab 10.6 nM, donor 2 (entry H4H14470P (antibody, human IgG4, V domains shown, human IgG4 (H4H)) VH: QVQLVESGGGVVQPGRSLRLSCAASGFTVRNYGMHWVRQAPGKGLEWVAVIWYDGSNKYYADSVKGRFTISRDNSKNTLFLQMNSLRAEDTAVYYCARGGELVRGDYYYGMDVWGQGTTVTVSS VL: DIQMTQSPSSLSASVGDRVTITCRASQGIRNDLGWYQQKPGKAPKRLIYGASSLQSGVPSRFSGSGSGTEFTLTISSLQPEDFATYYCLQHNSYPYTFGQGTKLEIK ) reads 3

The binder H4H14525P (antibody, human IgG4, V domains shown, human IgG4 (H4H)) VH: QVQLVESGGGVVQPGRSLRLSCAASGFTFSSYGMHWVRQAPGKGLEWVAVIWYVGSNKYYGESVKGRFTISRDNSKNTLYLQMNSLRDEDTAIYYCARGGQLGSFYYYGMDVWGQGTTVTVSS VL: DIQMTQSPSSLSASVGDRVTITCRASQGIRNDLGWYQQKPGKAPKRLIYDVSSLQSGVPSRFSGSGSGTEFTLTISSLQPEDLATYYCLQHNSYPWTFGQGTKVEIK showed fold activation, T-cell proliferation, plate-bound Ab 10.6 nM, donor 2 equal to 1

Lookup result for H4H14528P (antibody, human IgG4, V domains shown, human IgG4 (H4H)) VH: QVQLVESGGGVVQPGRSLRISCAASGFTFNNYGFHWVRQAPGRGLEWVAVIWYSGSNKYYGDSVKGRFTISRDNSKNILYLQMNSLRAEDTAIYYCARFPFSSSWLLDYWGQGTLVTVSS VL: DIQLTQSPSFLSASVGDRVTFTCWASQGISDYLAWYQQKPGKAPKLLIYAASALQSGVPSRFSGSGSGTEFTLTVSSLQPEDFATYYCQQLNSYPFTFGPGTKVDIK ; measured fold activation, T-cell proliferation, plate-bound Ab 10.6 nM, donor 2: 8

Form field fold activation, T-cell proliferation, plate-bound Ab 10.6 nM, donor 2, entry H4H14521P (antibody, human IgG4, V domains shown, human IgG4 (H4H)) VH: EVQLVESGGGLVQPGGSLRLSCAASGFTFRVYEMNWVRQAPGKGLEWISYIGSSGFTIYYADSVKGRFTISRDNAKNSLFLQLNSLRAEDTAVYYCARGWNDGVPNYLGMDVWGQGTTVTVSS VL: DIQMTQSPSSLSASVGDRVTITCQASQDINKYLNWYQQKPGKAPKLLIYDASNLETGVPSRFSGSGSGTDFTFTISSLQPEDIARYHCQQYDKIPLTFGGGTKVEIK : 4

Consider H4H14469P (antibody, human IgG4, V domains shown, human IgG4 (H4H)) VH: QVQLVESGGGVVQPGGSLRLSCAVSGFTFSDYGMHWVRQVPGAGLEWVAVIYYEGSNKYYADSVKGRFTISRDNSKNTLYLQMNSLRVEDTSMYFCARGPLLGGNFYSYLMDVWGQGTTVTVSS VL: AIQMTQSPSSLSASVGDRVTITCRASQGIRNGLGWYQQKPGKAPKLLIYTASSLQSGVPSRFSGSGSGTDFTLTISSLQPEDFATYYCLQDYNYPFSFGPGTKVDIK . Its measured fold activation, T-cell proliferation, plate-bound Ab 10.6 nM, donor 2 is 12

Documented fold activation, T-cell proliferation, plate-bound Ab 10.6 nM, donor 2 of H4H14516P (antibody, human IgG4, V domains shown, human IgG4 (H4H)) VH: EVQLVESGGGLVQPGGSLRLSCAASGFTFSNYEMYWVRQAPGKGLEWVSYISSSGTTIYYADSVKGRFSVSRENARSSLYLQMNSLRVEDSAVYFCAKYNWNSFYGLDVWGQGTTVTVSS VL: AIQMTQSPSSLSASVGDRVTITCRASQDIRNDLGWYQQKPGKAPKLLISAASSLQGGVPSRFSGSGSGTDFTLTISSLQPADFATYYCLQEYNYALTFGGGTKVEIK : 4

Please fill in: fold activation, T-cell proliferation, plate-bound Ab 10.6 nM, donor 2 reported for H4H14508P (antibody, human IgG4, V domains shown, human IgG4 (H4H)) VH: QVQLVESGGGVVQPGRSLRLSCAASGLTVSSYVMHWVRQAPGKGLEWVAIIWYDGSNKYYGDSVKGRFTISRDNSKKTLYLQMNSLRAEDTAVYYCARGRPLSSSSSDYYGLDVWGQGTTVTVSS VL: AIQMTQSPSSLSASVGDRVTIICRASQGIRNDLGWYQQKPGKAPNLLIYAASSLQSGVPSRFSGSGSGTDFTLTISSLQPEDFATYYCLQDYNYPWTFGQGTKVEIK = 4
